Molecular target: Rac GTPase-activating protein 1 (Homo sapiens)
Sequence (Q9H0H5 whole entry): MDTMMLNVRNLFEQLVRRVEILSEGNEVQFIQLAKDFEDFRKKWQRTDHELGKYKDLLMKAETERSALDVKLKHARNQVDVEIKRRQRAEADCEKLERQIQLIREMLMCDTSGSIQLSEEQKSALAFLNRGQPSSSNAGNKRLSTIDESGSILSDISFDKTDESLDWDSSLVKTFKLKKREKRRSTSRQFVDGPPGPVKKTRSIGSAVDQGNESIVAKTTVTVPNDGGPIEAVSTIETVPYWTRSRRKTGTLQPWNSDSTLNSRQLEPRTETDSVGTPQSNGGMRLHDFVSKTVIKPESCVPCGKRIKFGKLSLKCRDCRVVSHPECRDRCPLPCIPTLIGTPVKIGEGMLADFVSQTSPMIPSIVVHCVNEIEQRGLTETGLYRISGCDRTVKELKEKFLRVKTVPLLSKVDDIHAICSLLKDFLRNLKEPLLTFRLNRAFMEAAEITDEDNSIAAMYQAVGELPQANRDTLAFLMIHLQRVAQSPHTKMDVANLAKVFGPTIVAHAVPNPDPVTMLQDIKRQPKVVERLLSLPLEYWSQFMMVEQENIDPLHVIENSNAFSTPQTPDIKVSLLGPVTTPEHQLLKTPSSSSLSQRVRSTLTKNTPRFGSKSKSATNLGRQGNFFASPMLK
Assay: blockers of MgcRacGAP-driven Rac1 GTP hydrolysis – biochemical, ADP Hunter fluorescence, primary and confirmatory, confirmation (AID 624330)
Format: functional
The source made the active and inactive calls.
PROPERTY MEASURED: IC50

>>> observed_value("CN(C)c1ccc(O)c2c1CC1CC3[C@@H](N(C)C)C(O)=C(C(N)=O)C(=O)[C@]3(O)C(O)=C1C2=O (stereo not given in full)")
"120 µM (active)"

Which IC50 reading was recorded for the molecule `Oc1ccc(/C=N/n2cc(-c3ccccc3)nc2S)cc1` ?
101 µM (active)

Try this molecule too: `CCc1c(C)nc(N)nc1N1N=C1SC(C(C)=O)C(C)=O`
12.5 µM (active)

Then `CN1/C(=N\O)c2cccc3cccc1c23` ?
24.8 µM (active)

Please do the same for `O=C(CNCc1ccco1)Nc1ccc(Oc2ccccc2)cc1` as well.
122 µM (active)

* * *

// reported EC50 for each item listed
Molecular target: Protein RecA (Mycobacterium tuberculosis, UniProt P9WHJ3)
Sequence (P9WHJ3 whole entry): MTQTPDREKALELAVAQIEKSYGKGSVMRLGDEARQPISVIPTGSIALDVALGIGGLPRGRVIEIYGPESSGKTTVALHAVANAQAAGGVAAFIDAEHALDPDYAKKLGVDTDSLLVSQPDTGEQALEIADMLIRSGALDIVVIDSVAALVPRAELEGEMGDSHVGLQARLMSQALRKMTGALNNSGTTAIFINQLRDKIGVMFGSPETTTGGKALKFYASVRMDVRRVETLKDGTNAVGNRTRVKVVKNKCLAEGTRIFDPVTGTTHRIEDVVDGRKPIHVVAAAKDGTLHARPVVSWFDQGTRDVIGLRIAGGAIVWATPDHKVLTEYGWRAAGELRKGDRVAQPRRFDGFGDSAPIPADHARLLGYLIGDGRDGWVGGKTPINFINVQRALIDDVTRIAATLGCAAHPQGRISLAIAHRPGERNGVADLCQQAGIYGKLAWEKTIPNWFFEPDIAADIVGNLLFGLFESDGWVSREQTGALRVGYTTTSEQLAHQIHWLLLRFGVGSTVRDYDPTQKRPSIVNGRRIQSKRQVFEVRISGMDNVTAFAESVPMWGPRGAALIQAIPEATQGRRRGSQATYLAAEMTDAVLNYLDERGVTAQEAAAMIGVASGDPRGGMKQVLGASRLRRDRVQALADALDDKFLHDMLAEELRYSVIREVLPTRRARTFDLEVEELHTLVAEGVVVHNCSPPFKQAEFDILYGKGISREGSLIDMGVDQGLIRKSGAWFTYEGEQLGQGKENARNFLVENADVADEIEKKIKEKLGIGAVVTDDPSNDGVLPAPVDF
Assay: Fluorescence Cell-Free Homogeneous Dose Retest to Identify Inhibitors of RecA-Intein Splicing Activity. [Related pubchem assays (depositor defined):AID2097, AID2223, AID489010, AID492950]
Assay type: functional
Active and inactive are the calls of the source.

>>> observed_value("Cc1[nH]nc2c1C1(CCC(c3ccccc3)CC1)C(C#N)=C(N)O2 (stereo unspecified)")
"1.51 µM (active)"
>>> observed_value("CCCc1n[nH]c2c1C(c1ccc(Br)s1)C(C#N)=C(N)O2 (stereo unspecified)")
"7.21 µM (active)"
>>> observed_value("CCCSc1cc(NCCOC(=O)CCC)c([N+](=O)[O-])c2nonc12")
"4.48 µM (active)"

// query EC50 value for entry `CC1=NN(c2ccccc2)C(=O)/C1=C\c1c[nH]nc1-c1ccccc1`
2.54 µM (active)

Try the compound `C=C1C(=O)O[C@@H]2C[C@@H](C)[C@@H]3C=CC(=O)[C@@]3(C)[C@@H](OC(=O)CC(=O)O[C@H]3[C@@H]4C(=C)C(=O)O[C@@H]4C[C@@H](C)[C@@H]4C=CC(=O)[C@]43C)[C@H]12`
46 µM (active)

Next compound up: `COc1ccc(S(=O)(=O)Nc2c(O)ccc3ccccc23)cc1OC`
2.85 µM (active)

* * *

Parameter: EC50. Scope: all listed entries.
Biological target: Heat shock factor protein 1 (Mus musculus, UniProt P38532)
Sequence (P38532 whole entry): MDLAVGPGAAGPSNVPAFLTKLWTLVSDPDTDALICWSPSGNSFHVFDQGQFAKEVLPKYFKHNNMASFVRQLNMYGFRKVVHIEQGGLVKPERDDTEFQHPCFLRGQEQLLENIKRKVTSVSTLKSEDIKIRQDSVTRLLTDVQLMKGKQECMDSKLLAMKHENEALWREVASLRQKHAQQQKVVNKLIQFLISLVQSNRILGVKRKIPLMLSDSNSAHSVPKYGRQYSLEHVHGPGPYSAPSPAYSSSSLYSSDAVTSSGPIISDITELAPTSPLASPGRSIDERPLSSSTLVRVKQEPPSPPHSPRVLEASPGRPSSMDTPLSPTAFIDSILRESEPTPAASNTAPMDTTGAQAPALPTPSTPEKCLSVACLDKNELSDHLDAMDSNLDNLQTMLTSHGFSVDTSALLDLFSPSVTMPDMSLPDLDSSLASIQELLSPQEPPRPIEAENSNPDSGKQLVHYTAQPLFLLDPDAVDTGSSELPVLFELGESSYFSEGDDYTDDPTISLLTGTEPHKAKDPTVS
Assay: decrease of HSF1-responsive luciferase luminescence – cell-based, NIH3T3, dose retest, confirmation (AID 2382);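 note: NIH3T3 fibroblasts with HSF1-driven luciferase reporter stressed by proteasome inhibitor MG132; luminescence from HSF1-driven luciferase expression after 8 hours of MG132 stress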
Type: functional
Activity calls are given as the source filed them.

Entry `CC1CCN(C(=O)CSc2nc(O)c3cnn(-c4ccc(Cl)cc4)c3n2)CC1` , system Heat shock factor protein 1 (Mus musculus, UniProt P38532): what EC50 was measured?
> 195 µM (not active)

And for `CC(C)(C)N1[C@@H](CC(=O)O)c2cc(C(F)(F)F)ccc2S1(=O)=O` ?
> 195 µM (not active)

Request: `CN(C)c1nc(OCCNC(=O)COc2ccc(Cl)cc2Cl)nc(N(C)C)n1`
> 195 µM (not active)

Now consider Cc1ccc(N2CC(C(=O)Nc3nnc(SCCN4CCOCC4)s3)CC2=O)cc1 (stereo not drawn) .
> 195 µM (not active)

Would you kindly repeat that for `COc1ccc(CNC(=O)C(=O)c2cn(CC(=O)N3CCOCC3)c3ccccc23)cc1` ?
> 195 µM (not active)

Next molecule up: `C/C(=N\Nc1nncc2ccccc12)c1ccc(Cl)c([N+](=O)[O-])c1`
> 195 µM (not active)

Also `CNC(=S)N/N=C/c1ccc(-c2cccc(C(=O)O)c2)o1` ?
> 195 µM (not active)

// repeat for `COCc1n[nH]c2c1C1(CCSCC1)C(C#N)=C(N)O2` and report
> 195 µM (not active)

Can you handle `COc1cccc2cc(-c3nnc(-c4ccccc4)o3)c(=O)oc12` next?
70.4 µM (active)

Param item: `C=C1C(=O)O[C@@H]2C[C@@H](C)[C@@H]3C=CC(=O)[C@@]3(C)[C@@H](OC(=O)CC(=O)O[C@H]3[C@@H]4C(=C)C(=O)O[C@@H]4C[C@@H](C)[C@@H]4C=CC(=O)[C@]43C)[C@H]12`
0.98 µM (active)

COC(=O)C1=C(CN2CCCc3ccccc32)NC(=O)NC1c1ccc(F)cc1 (stereo not drawn) ?
8.88 µM (active)

Cool, now `O=C(/C(=C(\[O-])c1ccccc1)[n+]1ccc2ccccc2c1)c1ccc([N+](=O)[O-])cc1`
> 195 µM (not active)

Please give the result for CC(C)=C1C2CCC1C1C(=O)N(c3ccc(C)c(C)c3)C(=O)C21 (stereo not drawn) too.
> 195 µM (not active)

* * *

Target: Paired box protein Pax-8 (Homo sapiens, UniProt Q06710)
Sequence (Q06710 whole entry): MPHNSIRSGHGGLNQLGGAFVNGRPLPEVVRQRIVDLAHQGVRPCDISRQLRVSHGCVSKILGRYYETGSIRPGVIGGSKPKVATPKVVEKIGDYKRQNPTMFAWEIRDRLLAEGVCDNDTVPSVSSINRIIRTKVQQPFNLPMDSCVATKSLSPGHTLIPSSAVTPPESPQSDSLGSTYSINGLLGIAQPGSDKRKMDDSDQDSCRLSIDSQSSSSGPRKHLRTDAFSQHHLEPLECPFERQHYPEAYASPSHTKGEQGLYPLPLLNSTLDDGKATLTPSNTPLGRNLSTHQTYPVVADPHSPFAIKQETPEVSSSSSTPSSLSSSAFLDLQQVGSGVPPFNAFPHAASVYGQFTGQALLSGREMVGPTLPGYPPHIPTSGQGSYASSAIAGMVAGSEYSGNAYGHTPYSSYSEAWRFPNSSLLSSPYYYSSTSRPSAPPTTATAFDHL
Test: PAX8 transcriptional activity inhibition in RMG-I – RMG-I cells, luciferase, cherry-pick, dose response (AID 687027);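 note: luciferase reporter driven by Pax8 target thyroperoxidase promoter measured by SteadyGlo luminescence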
Assay type: functional, cell-based
Activity calls are given as the source filed them.
PROPERTY MEASURED: AC50

Please review the entries below; each comes with its answer.
>>> observed_value("Cc1ccc(S(=O)(=O)Nc2ccc3c(c2)CC(=O)N([C@@H](C)CO)C[C@H](C)[C@@H](CN(C)C(=O)Nc2ccc(C(F)(F)F)cc2)O3)cc1")
"30.4 µM (active)"
>>> observed_value("O=C(Nc1ccc(F)cc1)N1CCCCN2[C@@H](CO)[C@@H](c3ccc(-c4cccc(F)c4)cc3)[C@@H]2C1")
"21.3 µM (active)"

Consider the compound shown here: `Cc1noc(C)c1S(=O)(=O)Nc1ccc2c(c1)C(=O)N([C@H](C)CO)C[C@@H](C)[C@@H](CN(C)Cc1ccc(C(F)(F)F)cc1)OCCCC[C@H](C)O2` What is its recorded AC50?
8.19 µM (active)

* * *

Target: Zinc finger protein mex-5 (Caenorhabditis elegans)
Sequence (Q9XUB2 whole entry): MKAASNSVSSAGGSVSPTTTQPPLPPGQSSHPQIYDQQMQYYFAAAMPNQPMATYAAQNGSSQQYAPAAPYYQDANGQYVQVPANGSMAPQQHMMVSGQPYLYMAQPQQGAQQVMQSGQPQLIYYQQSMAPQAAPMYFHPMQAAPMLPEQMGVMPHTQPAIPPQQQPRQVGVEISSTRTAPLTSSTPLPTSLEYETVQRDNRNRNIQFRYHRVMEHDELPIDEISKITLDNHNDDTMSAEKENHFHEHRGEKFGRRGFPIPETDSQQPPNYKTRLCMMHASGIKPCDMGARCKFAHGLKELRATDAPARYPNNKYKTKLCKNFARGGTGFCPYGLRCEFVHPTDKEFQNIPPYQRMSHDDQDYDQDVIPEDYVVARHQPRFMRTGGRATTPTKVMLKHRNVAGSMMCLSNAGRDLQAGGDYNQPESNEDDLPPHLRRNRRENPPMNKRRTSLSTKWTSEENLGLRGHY
Assay: potency of MEX-5 RNA-binding blockers – biochemical, C. elegans, fluorescence polarization, dose response (AID 1960)
Active and inactive are the calls of the source.
PROPERTY MEASURED: EC50

In the examples that follow, each entry is paired with its recorded EC50.
>>> observed_value("COc1cc(/C=C2/C(=O)ON=C2C)ccc1OCc1ccccc1F")
"> 300 µM (inconclusive)"
>>> observed_value("N#CC(C#N)=Cc1cccn1-c1ccc(C(=O)O)cc1")
"160 µM (active)"
>>> observed_value("CCN1CCN(Cc2c(O)ccc3c2O/C(=C\\c2ccc(C)cc2)C3=O)CC1")
"111 µM (active)"
>>> observed_value("COc1ccc(CCn2c(=N)c(C(=O)NC3CCCCC3)cc3c(=O)n4ccccc4nc32)cc1")
"8.45 µM (inconclusive)"
>>> observed_value("Cc1nnc(S)c2nn(-c3cccc(Cl)c3)c(C)c12")
"153 µM (active)"

Endpoint output: EC50 of `Cc1cc(C)nc(NN2C(=O)C=CC2=O)n1` . Value?
40.8 µM (active)

All values here come from ChEMBL document CHEMBL1201862.
